- System: HCT116-MTAP-KO cells (HCT116 MTAP null)
- Test: Proliferation inhibition of HCT116 MTAP-KO cells in vitro (CellTiter Glo)
- Format: cell-based
- Conditions: HCT116-MTAP null, 144 h, 6 days, 9 concentrations starting from 3 μM, read-out: Cell proliferation inhibition rate HCT116 MTAP null IC50 (nm)
Entries and their IC50 values follow.

Some entries whose results are on file:
INSERT INTO measurements (smiles_code, reported_property, result) VALUES
  ('Cc1cnc(C)c(N(Cc2ccc(C(F)(F)F)cn2)C(=O)c2cc3c(cc2F)nc(N)c2cnc(C)n23)c1', 'IC50', '< 100 nM'),
  ('COc1ccc(CN(C(=O)c2cc3c(cc2F)nc(N)c2c(C)ncn23)c2cn(C)nc2C)nn1', 'IC50', '< 100 nM');

Data request: Provide measured IC50 value, entry: Cn1ncc2c(N)nc3cc(F)c(C(=O)N4CCC5(CCN(c6ccc(C(F)(F)F)cc6)CC5)C4)cc3c21
Data returned: 100 to 1000 nM

Data request: Provide measured IC50 value, entry: Cc1cn2c(n1)c(N)nc1cc(F)c(C(=O)N3[C@H](C)COC[C@@H]3c3cn4cc(C(F)(F)F)ccc4n3)cc12
Data returned: < 100 nM

###

- Tested on: HCT116-MTAP-KO cells (HCT116 MTAP null)
- Test: Proliferation inhibition of HCT116 MTAP-KO cells in vitro (CellTiter Glo)
- Assay type: cell-based
- Conditions: HCT116-MTAP null, 144 h, 6 days, 9 concentrations starting from 3 μM, read-out: Cell proliferation inhibition rate HCT116 MTAP null IC50 (nm)
pIC50: −log10 of the molar value.
Entries and their pIC50 values follow.

INSERT INTO measurements (molecule, measurement_target, result) VALUES
  ('Cc1ncc2c(N)nc3ccc(C(=O)N(Cc4ccc(C(F)(F)F)cn4)C(C)c4ncccn4)cc3n12 (stereo not drawn) [Example 2]', 'HCT116-MTAP-KO cells (HCT116 MTAP null)', '6.00 to 7.00'),
  ('Cc1ncc2c(N)nc3cc(F)c(C(=O)N(Cc4ccc(C(F)(F)F)cn4)c4ncn(C)n4)cc3n12 [Example 115]', 'HCT116-MTAP-KO cells (HCT116 MTAP null)', '6.00 to 7.00'),
  ('Cc1ncc2c(N)nc3cc(F)c(C(=O)N(Cc4ccc(C(F)(F)F)cn4)c4cnn(C)c4)cc3n12 [Example 90]', 'HCT116-MTAP-KO cells (HCT116 MTAP null)', '> 7.00');

Data request: Answer briefly: pIC50 recorded on HCT116-MTAP-KO cells (HCT116 MTAP null) for CCn1cc(N(Cc2ccc(C(F)(F)F)cn2)C(=O)c2cc3c(cc2F)nc(N)c2c(C)ncn23)c(C)n1 [Example 150]
Data returned: > 7.00

Data request: Answer briefly: pIC50 recorded on HCT116-MTAP-KO cells (HCT116 MTAP null) for Cc1nn(CCO)cc1N(Cc1ccc(C(F)(F)F)cn1)C(=O)c1cc2c(cc1F)nc(N)c1c(C)ncn12 [Example 165]
Data returned: > 7.00

Data request: Answer briefly: pIC50 recorded on HCT116-MTAP-KO cells (HCT116 MTAP null) for Cc1nn(C)cc1N(Cc1ccc(C(F)(F)F)nc1)C(=O)c1cc2c(cc1F)nc(N)c1cnc(C)n12 [Example 182]
Data returned: > 7.00

Data request: Answer briefly: pIC50 recorded on HCT116-MTAP-KO cells (HCT116 MTAP null) for Cc1cn(C)c(N(Cc2ccc(C(F)(F)F)cn2)C(=O)c2cc3c(cc2F)nc(N)c2cnc(C)n23)n1 [Example 210]
Data returned: > 7.00

Data request: Answer briefly: pIC50 recorded on HCT116-MTAP-KO cells (HCT116 MTAP null) for CCn1cc(N(Cc2ccc(OC3CC3)cn2)C(=O)c2cc3c(cn2)nc(N)c2cnc(C)n23)c(C)n1 [Example 199]
Data returned: > 7.00

Data request: Answer briefly: pIC50 recorded on HCT116-MTAP-KO cells (HCT116 MTAP null) for Cc1ncc2c(N)nc3cc(F)c(C(=O)N(Cc4cnn(CC(F)(F)F)c4)c4ccnn4C)cc3n12 [Example 319]
Data returned: 6.00 to 7.00

Data request: Answer briefly: pIC50 recorded on HCT116-MTAP-KO cells (HCT116 MTAP null) for Cc1ncc2c(N)nc3cc(F)c(C(=O)N(C)C4COc5cc(Br)ccc54)cc3n12 (stereo not drawn) [Example 40]
Data returned: 6.00 to 7.00

###

Entries and their pIC50 values follow.
- System: HCT116-MTAP-KO cells (HCT116 MTAP null)
- Test: Proliferation inhibition of HCT116 MTAP-KO cells in vitro (CellTiter Glo)
- Format: cell-based
- Conditions: HCT116-MTAP null, 144 h, 6 days, 9 concentrations starting from 3 μM, read-out: Cell proliferation inhibition rate HCT116 MTAP null IC50 (nm)
pIC50: −log10 of the molar value.

Data request: Provide measured pIC50 value, entry: Cc1cc(C)c(N(Cc2ccc(C(F)(F)F)cn2)C(=O)c2cc3c(cc2F)nc(N)c2cnc(C)n23)cn1
Data returned: > 7.00

Data request: Provide measured pIC50 value, entry: Cc1nn(C)cc1N(Cc1ccc(OC2COC2)cn1)C(=O)c1cc2c(cc1F)nc(N)c1c(C)ncn12
Data returned: > 7.00

Data request: Provide measured pIC50 value, entry: Cc1nn(C)cc1N(Cc1ncc(C(F)(F)F)cn1)C(=O)c1cc2c(cc1F)nc(N)c1cnc(C)n12
Data returned: 6.00 to 7.00

Data request: Provide measured pIC50 value, entry: Cc1ncc2c(N)nc3cc(F)c(C(=O)N(Cc4cn5cc(C#N)ccc5n4)c4cnn(C)c4)cc3n12
Data returned: 5.00 to 6.00

###

- Tested on: HCT116-MTAP-KO cells (HCT116 MTAP null)
- Test: Proliferation inhibition of HCT116 MTAP-KO cells in vitro (CellTiter Glo)
- Format: cell-based
- Conditions: HCT116-MTAP null, 144 h, 6 days, 9 concentrations starting from 3 μM, read-out: Cell proliferation inhibition rate HCT116 MTAP null IC50 (nm)
Entries and their IC50 values follow.

INSERT INTO measurements (molecule, result) VALUES
  ('Cc1ncc2c(N)nc3cc(F)c(C(=O)N4CCC(c5ccc(C(F)(F)F)cn5)C4)cc3n12 (stereo not shown)', '100 to 1000 nM'),
  ('CCn1cc(N(Cc2ccc(C(F)(F)F)cn2)C(=O)c2cc3c(cn2)nc(N)c2cnc(C)n23)c(C)n1', '< 100 nM'),
  ('Cc1ncc2c(N)nc3cc(F)c(C(=O)N(Cc4cn5ccc(C(F)(F)F)cc5n4)c4cnn(C)c4)cc3n12', '100 to 1000 nM');

Data request: Provide measured IC50 value, entry: Cc1nc(C)n2c1c(N)nc1ccc(C(=O)N(Cc3ccc(C(F)(F)F)cn3)C(C)c3ncccn3)cc12 (stereo not shown)
Data returned: < 100 nM

Data request: Provide measured IC50 value, entry: Cc1nn(C)cc1N(Cc1ccc(C(F)(F)F)cn1)C(=O)c1cc2c(cc1F)nc(N)c1cnc(C)n12
Data returned: < 100 nM

Data request: Provide measured IC50 value, entry: Cc1ccc(N(Cc2ccc(C(F)(F)F)cn2)C(=O)c2cc3c(cc2F)nc(N)c2cnc(C)n23)c(C)n1
Data returned: < 100 nM

Data request: Provide measured IC50 value, entry: COc1ccc(CN(C(=O)c2cc3c(cc2F)nc(N)c2cnc(C)n23)c2cn(C)nc2C)nn1
Data returned: < 100 nM

###

- Test system: HCT116-MTAP-KO cells (HCT116 MTAP null)
- Test: Proliferation inhibition of HCT116 MTAP-KO cells in vitro (CellTiter Glo)
- Assay type: cell-based
- Conditions: HCT116-MTAP null, 144 h, 6 days, 9 concentrations starting from 3 μM, read-out: Cell proliferation inhibition rate HCT116 MTAP null IC50 (nm)
pIC50: −log10 of the molar value.
Entries and their pIC50 values follow.

INSERT INTO measurements (compound, reported_property, result) VALUES
  ('Cc1ncc2c(N)nc3cc(F)c(C(=O)N(Cc4ccc(C(F)(F)F)cn4)c4ccnn4C)cc3n12 [Example 200]', 'pIC50', '> 7.00'),
  ('Cc1ncc2c(N)nc3cc(F)c(C(=O)N(Cc4ccc(N5CC(F)(F)C5)cn4)c4ccnn4C)cc3n12 [Example 219]', 'pIC50', '> 7.00'),
  ('COc1ncc(N(Cc2ccc(C(F)(F)F)cn2)C(=O)c2cc3c(cc2F)nc(N)c2cnc(C)n23)cn1 [Example 148]', 'pIC50', '6.00 to 7.00');

Now consider a different compound.
Data request: Provide measured pIC50 value, entry: Cc1cccc(-c2csc(CN(CC(C)C)C(=O)c3ccc4nc(N)c5c(C)ncn5c4c3)n2)n1 [Example 312]
Data returned: > 7.00

All values here come from patent US20250376473A1.
